# target: Cytoplasmic tyrosine-protein kinase BMX (Homo sapiens)
# Sequence (whole entry): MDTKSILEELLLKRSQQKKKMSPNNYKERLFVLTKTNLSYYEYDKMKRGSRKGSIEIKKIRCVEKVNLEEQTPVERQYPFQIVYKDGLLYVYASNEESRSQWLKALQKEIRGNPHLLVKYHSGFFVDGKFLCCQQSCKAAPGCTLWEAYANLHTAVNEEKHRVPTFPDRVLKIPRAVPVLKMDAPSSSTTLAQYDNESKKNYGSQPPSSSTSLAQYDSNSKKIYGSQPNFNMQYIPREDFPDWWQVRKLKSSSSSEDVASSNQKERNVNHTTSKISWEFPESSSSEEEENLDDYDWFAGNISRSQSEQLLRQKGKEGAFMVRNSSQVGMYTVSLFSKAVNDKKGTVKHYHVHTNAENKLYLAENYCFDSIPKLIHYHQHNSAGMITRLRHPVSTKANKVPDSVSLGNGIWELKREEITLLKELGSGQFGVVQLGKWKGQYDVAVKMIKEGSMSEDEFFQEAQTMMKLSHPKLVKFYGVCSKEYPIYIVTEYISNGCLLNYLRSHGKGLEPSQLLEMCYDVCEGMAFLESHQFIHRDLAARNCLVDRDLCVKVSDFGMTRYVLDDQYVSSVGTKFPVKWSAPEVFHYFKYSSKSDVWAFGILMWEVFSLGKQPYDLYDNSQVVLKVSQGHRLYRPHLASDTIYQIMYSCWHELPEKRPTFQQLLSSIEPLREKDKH
# experimental-setup: at 0.1 µM
# Description: GSK_PKIS: BMX mean inhibition at 0.1 uM [Nanosyn]
Known inhibition of a selection of compounds
A number alone suffices; assume %.

The compound listed as "O=C(O[C@H]1CN[C@H](C#Cc2cc3ncnc(Nc4ccc(Cc5ccccc5)cc4)c3s2)C1)N1CCOCC1" has a reported inhibition of 1.38

inhibition recorded for this compound, "CCn1c(-c2nonc2N)nc2c(C#CC(C)(C)O)ncc(OC3CCNCC3)c21" , is 3.84

Reported inhibition for "COC(=O)Nc1nc2ccc(S(=O)(=O)c3ccc(NC(=O)Nc4cc(C(F)(F)F)ccc4F)cc3)cc2[nH]1" was 6.6

Next:
So, "CCN1CCC(CC(=O)Nc2n[nH]c3nnc(-c4cccc(F)c4F)cc23)CC1" ? Its inhibition was 1.54

Documented inhibition of "COc1ccc(-c2cc(-c3c[nH]nc3-c3ccccn3)ccn2)cc1" : -1.41
